assayDetails: physchem
conditionsUsed: 55 °C, aqueous with cosolvent or surfactant or cyclodextrin, thermodynamic from solid
observationType: solubility (µg/mL)
Give the number; µg/mL is assumed, so skip it.

Could you share which solubility value was measured for COC12CC[C@@]3(C[C@@H]1[C@](C)(O)C(C)(C)C)C1Cc4ccc(O)c5c4[C@@]3(CCN1CC1CC1)[C@H]2O5 [Buprenorphine free base] ?
1180

All figures here come from patent US12522610B2.
